From: patent US20150094294A1

Recorded EC50 values for a group of molecules are listed next.
test: Cytotoxicity against HepG2 cells; type: cell-based; settings: human, HepG2 cells; read-out: Cytotoxicity HepG2 EC50

Answered examples (5):
N=C(N)NCCCOc1cc(OCCCNC(=N)N)c(-c2ccncc2)cc1-c1ccncc1: > 1450 µM
CN1CCN(c2ccc(-c3cc(-c4ccc(N5CCN(C)CC5)cc4)ncn3)cc2)CC1: > 1000 µM
CN(C)C1CCN(c2ccc(NC(=O)c3cccc(C(=O)Nc4ccc(N5CCC(N(C)C)CC5)cc4)n3)cc2)CC1: > 1000 µM
COc1cccc(C(=O)Nc2cc(C(F)(F)F)cc(NC(=O)c3cc(C(=O)Nc4cc(C(F)(F)F)cc(NC(=O)c5cccc(OC)c5)c4SCCN)ncn3)c2SCCN)c1: > 1000 µM
CC(=O)Nc1cc(C(F)(F)F)cc(NC(=O)c2cc(C(=O)Nc3cc(C(F)(F)F)cc(NC(C)=O)c3SCCN)ncn2)c1SCCN: > 1000 µM

Dear colleague, I am looking for the recorded EC50 of the following molecule: O=C(Nc1ccc(O[C@@H]2CCNC2)nc1)c1cc(C(=O)Nc2ccc(O[C@@H]3CCNC3)nc2)ncn1
> 1000 µM

Also check NCCCc1ccc(-c2ccc(CCCN)cc2)cc1
> 1000 µM

* * *

experiment: in vitro; format: cell-based
recorded metric: EC50

COc1ccc(CN)cc1NC(=O)c1cc(C(=O)Nc2cc(CN)ccc2OC)ncn1: > 1000 µg/mL
c1cc(N2CCNCC2)ccc1-c1ccc(N2CCNCC2)cc1: > 1000 µg/mL

Dear colleague, I am looking for the recorded EC50 of the following compound: N=C(N)NCCSc1nc(-c2cccc(CCNC(=N)N)c2)cc(-c2cccc(CCNC(=N)N)c2)n1
> 1000 µg/mL

* * *

Recorded pEC50 values for a group of compounds are listed next.
experiment: Cytotoxicity against 3T3 cells; assay type: cell-based; conditions: mouse, 3T3 cells; read-out: Cytotoxicity 3T3 EC50
pEC50: −log10 of the molar value.

N=C(N)NCCCOc1cc(OCCCNC(=N)N)c(-c2ccncc2)cc1-c1ccncc1: < 2.84
CC(C)N1CCc2ccc(NC(=O)c3cc(C(=O)Nc4ccc5c(c4)CCN(C(C)C)CC5)ncn3)cc2CC1: < 4.00
O=C(Nc1ccc(O[C@@H]2CCNC2)cc1)c1cncc(C(=O)Nc2ccc(O[C@@H]3CCNC3)cc2)c1: < 3.00
NCCSc1ccc(C(F)(F)F)cc1C(=O)Nc1ccc(-c2ccc(NC(=O)c3cc(C(F)(F)F)ccc3SCCN)cc2)cc1: > 4.80
CN(C)C1CCN(c2ccc(NC(=O)c3ccnc(C(=O)Nc4ccc(N5CCC(N(C)C)CC5)cc4)c3)cc2)CC1: < 3.00

Dear colleague, I am looking for the recorded pEC50 of the following compound: CN(C)C1CCN(c2ccc(NC(=O)c3cccc(C(=O)Nc4ccc(N5CCC(N(C)C)CC5)cc4)n3)cc2)CC1
< 3.00

Also check CN1CCN(c2ccc(-c3cc(-c4ccc(N5CCN(C)CC5)cc4)ncn3)cc2)CC1
< 3.00

Also check NCCSc1c(NC(=O)c2cc(C(=O)Nc3cc(C(F)(F)F)cc(NC(=O)c4ccc(Cl)cc4Cl)c3SCCN)ncn2)cc(C(F)(F)F)cc1NC(=O)c1ccc(Cl)cc1Cl
< 3.00

Also check NCCCOc1c(-c2cccc(C(F)(F)F)c2)cc(-c2cccc(C(F)(F)F)c2)c(OCCCN)c1-c1cccc(C(F)(F)F)c1
4.85

Also check N=C(N)N1CCN(c2ccc(-c3ccc(-c4ccc(N5CCN(C(=N)N)CC5)cc4)s3)cc2)CC1
3.38

Also check N=C(N)N1CCN(c2ccc(-c3cccc(-c4ccc(N5CCN(C(=N)N)CC5)nc4)c3)cn2)CC1
3.78

Also check c1cc(-c2ccc(N3CCNCC3)nc2)cc(-c2ccc(N3CCNCC3)nc2)c1
4.40
